System: HCT-15 colon
Experiment: NCI tumour cell line growth inhibition, 48 h

COMPOUND	READING_UNIT	READOUT_RELATION	TGI
C/C(=N/O)c1cccc(Nc2nc3ccccc3c3[nH]c4ccccc4c23)c1	µM	=	10.6
COC(=O)/C(=N/NC(C)(C)C)C(C(=O)C=C(C)C)C(=O)C(=O)Nc1ccc(Cl)cc1C (centres undefined)	µM	>	100
CN(C)c1ccc(/C=C2\N=C(c3ccccc3)N(c3nc4c(Cl)cc(Cl)cc4s3)C2=O)cc1	µM	>	100
CCn1c2c(c3c(C(=O)OC)c(O)ccc31)C(=O)c1ccccc1C2=O	µM	=	30.1
